Biological target: OGA (Homo sapiens)
Construct: HEK293 cells inducible for P301L mutant human Tau (isoform 2N4R) were established at Janssen; endogenous in cells; host or cells: HEK293 cells inducible for P301L mutant human Tau (2N4R)
Assay: OGA cellular assay (ICC detection of O-GlcNAcylated proteins in HEK293 cells inducible for P301L mutant human Tau)
Format: cell-based
Conditions: HEK293 cells inducible for P301L mutant human Tau, 6 hours incubation; read-out: Cellular hOGA; pEC50 (converted)
What EC50 was measured for each of the following?
One number for each entry, in nM.

Use these answered entries as a reference point.
[[record]]
compound = "Cc1ccnc(OC2CCN(C(C)c3nc4c(cc3F)OCCO4)CC2)c1 (centres unmarked)"
target_system = "OGA (Homo sapiens)"
obs_value = 158

[[record]]
compound = "Cc1cc(OC2CCN([C@H](C)c3nc4c(cc3F)CCO4)CC2)cc(C)n1 (single isomer, unassigned) [Compound 143]"
target_system = "OGA (Homo sapiens)"
obs_value = 17.4

[[record]]
compound = "Cc1cc(OC2CCN(C(C)c3ccc4sc(C)nc4n3)CC2)c(Cl)c(C)n1 (centres unmarked)"
target_system = "OGA (Homo sapiens)"
obs_value = 501

[[record]]
compound = "COc1cc(OC2CCN(C(C)c3nc4c(cc3F)OCCO4)CC2)cc(C)n1 (centres unmarked)"
target_system = "OGA (Homo sapiens)"
obs_value = 50.1

[[record]]
compound = "Cc1cc(OC2CCN(C(C)c3nc4nc(C)sc4cc3F)CC2)nc(C)n1 (centres unmarked)"
target_system = "OGA (Homo sapiens)"
obs_value = 251


Field: EC50. Fill in for each record below.
1. Cc1cc(OC2CCN(C(C)c3cnc4sc(C)nc4c3)CC2)cc(C)n1 (centres unmarked)
2. Cc1cc(OC2CCN(C(C)c3ccc4c(n3)OCCO4)CC2)cc(C)n1 (single isomer, unassigned) [Compound 3]
3. Cc1cc(CC2CCN(C(C)c3ccc4c(n3)OCCO4)CC2)cc(C)n1 (centres unmarked)
4. Cc1nc(OC2CCN(C(C)c3nc4c(cc3F)OCCO4)CC2)ccc1C#N (centres unmarked)

Solution:
[631, 251, 251, 158]
